# assay.name: NCI Yeast Anticancer Drug Screen. Data for the cln2 rad14 strain (AID 165);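 also: 0% = growth equal to vehicle treated cultures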
# condition.notes: S. cerevisiae cln2 rad14 strain, at 50.0 µM, stronger effect = higher value
About 79,000 compounds went through this panel and 15% of them were active in at least one assay; those are over-represented in the sample as a whole.
observation.type: growth inhibition (%)
Write down the numeric answer in % and omit the unit.

Output growth inhibition of CC(C)N(CN1C(=O)N/C(=C/c2cccc(/C=C3/NC(=O)N(CN(C(C)C)C(C)C)C3=O)c2)C1=O)C(C)C
63.4

Identify measured growth inhibition associated with O=C1C2=C(Nc3cc([N+](=O)[O-])ccc3N2)OC1c1c2ccccc2cc2ccccc12 (stereo not given)
35.5

Name the recorded growth inhibition of the item COC(=O)c1ncc(Cl)cc1Cl in your answer.
22.1

Tell me growth inhibition reported for CCOC(=O)c1cc2c(nc1N)/C(=C/c1ccccc1)CCCC2
-15.4

---
Return growth inhibition for the following compound: COC(=O)c1cccc2cccc(C(=O)Nc3ccc(Cl)cc3)c12
92

The reported numbers originate from PubChem BioAssay (NCI).
